test: yeast display, Sf9 membrane polyspecificity reagent, FACS + sequencing; frameworks hold sequencing errors
readout_kind: polyreactivity (PSR sort gate)

{"record_sequence": "QVQLVESGGGLVQAGGSLRLSCAASGSIFKRNPMGRYRQAPGKERELVAGISRRAGSTYYADYVKGRFTISRDNAKNTDYLQMNSLKPEDTAVYYCATYSFRGTYRYDYWGQGTQVTVSS", "readout_kind": "polyreactivity (PSR sort gate)", "result": "high polyreactivity"}
{"record_sequence": "QVQLVESGGGLVLAGGSLRLSCAASGLIFAVYAMGWYRQAPGKERELVAGISASAASTYYADSVKGRFTISRDNAKNTVYLQMNSLKPEDTAVYYCAAGFYRRGKYDYWGQGTQVTVSS", "readout_kind": "polyreactivity (PSR sort gate)", "result": "high polyreactivity"}
{"record_sequence": "QVQLVESGGGLVQAGGSLRLSCAASGSIFDWNAMGWYRQAPGKERELVATISWDGGSTYYADSVKGRFTISRDNSKNTVYLQMNSLKPEDTAVYYCATVFTGKPAYYARTKYDYWGQGTQVTVSS", "readout_kind": "polyreactivity (PSR sort gate)", "result": "low polyreactivity"}
{"record_sequence": "QVQLVESGGGIVQAGGSLRLICAASGSIFSSNAMGWYRQAPGKERELVAAISYSGGGTYYADSVKGRFTISRDNEKNTVYLQMNSLKAEDTAVYYCAVGILFGHYDYLGQGTQVTVSS", "readout_kind": "polyreactivity (PSR sort gate)", "result": "high polyreactivity"}
{"record_sequence": "QVQLVESGGGLVQAGGSLRLSCAASGSTFLGNVMGWYRQAPGKERELVAAITSTGGNTYYADSVKGRFTISRDNAKNSVYLQMNSLKPEDTAVYYCAKKYVWTHNYWGQGTQVTVSS", "readout_kind": "polyreactivity (PSR sort gate)", "result": "low polyreactivity"}
{"record_sequence": "QVQLVESGGGLVQAGGSLRLSCAASGRTFPGNAMGWYRQAPGKERELVAAIRWRGGSTYYADSVKGRFTISRDNAKNTVYLQMNSLKPEDTAVYYCATRALGHFDWGQGTQVTVSS", "readout_kind": "polyreactivity (PSR sort gate)", "result": "low polyreactivity"}
{"record_sequence": "QVQLVESGGRLVQAGGSHRIRCAASGFIFWYYAMGWYRPAPGKERELVAGITTGGSTNYADSVKGRFTISRDNAKNTVYLEMNSLKPEDTAVYYCNADPTYQVGYDYWGQGTQVTVSS", "readout_kind": "polyreactivity (PSR sort gate)", "result": "low polyreactivity"}
{"record_sequence": "QDQLVESGGGLVQAGGSLRLSCAASGSIFVRYAMGWYRQAPGKERELVAAITSSAGYTYYADSVKGRFTISRDNAKNTVNLQMNSLKPEDTAVYYCAAVRYDASKFYYWGAGTQVTVSS", "readout_kind": "polyreactivity (PSR sort gate)", "result": "high polyreactivity"}
{"record_sequence": "QVQLVESGGGLVQAGGSLRLSCAASGRTFALYAMGWYRQAPGKERELVATITFIGDSTYYADSVKGRFTISRDNAKNTVYLQMNCLKPVDTAVYYCNATYGPYYPGIVTYIWFDHWGQGSQVTVSS", "readout_kind": "polyreactivity (PSR sort gate)", "result": "low polyreactivity"}
{"record_sequence": "QVQLVESGGGLVQAGGSLRLSCAASGSIFDVYTMGWYRQAPGKERELVAAISWSGGSTFYADSVKGRFTISRDNAKNTVYLQMNSLKPEDTAVYYCAARSYWRQYGRYGSWGQGTQVTVSS", "readout_kind": "polyreactivity (PSR sort gate)", "result": "high polyreactivity"}
{"record_sequence": "QVQLGESGGGLVQAGGSLRLSCAASGSTFYVYAQGWYRPAPGKERELVAAISSSGARTYYADSVKGRFTISRDNAKNTVYLQMNCLKPDDTAVLYCAARRYYKFYYWGHGTQVTVSS", "readout_kind": "polyreactivity (PSR sort gate)", "result": "high polyreactivity"}

Where these numbers come from: the nanobody polyreactivity screen of Harvey et al. (2022)
